molecular target: peripheral benzodiazepine receptors (Rattus norvegicus); assay: biochemical; assay type: binding; details: Table 1a; read-out: IC50 (nM) peripheral
Categories are defined by ranges of IC50, namely group A = under 300 nM, group B = from 300 nM up to 2000 nM, group C = 2000 nM and over

| Compound | Qualitative Label |
| --- | --- |
| Cc1ccc(-c2nc3ccc(C)cn3c2CC(=O)c2cccs2)cc1 [drawing 97] | group A |
| Cc1ccc(-c2nc3ccc(C)cn3c2CC(=O)c2cc3c(C)nn(C)c3s2)cc1 | group C |
| Cc1ccc(-c2nc3ccc(C)cn3c2CC(=O)c2sccc2C)cc1 | group A |

Class for Cc1ccc(-c2nc3ccc(C)cn3c2CC(=O)c2cncn2C)cc1 ? group C

Class for Cc1ccc(-c2nc3ccc(C)cn3c2CC(=O)c2nccs2)cc1 ? group B

Class for Cc1ccc(-c2nc3ccc(C)cn3c2CC(=O)c2csc(-c3cccs3)n2)cc1 ? group C

Class for Cc1ccc(-c2nc3ccc(C)cn3c2CC(=O)c2ccc(C)s2)cc1 ? group B

Class for Cc1ccc(-c2nc3ccc(C)cn3c2CC(=O)c2ccsc2)cc1 ? group A

Class for Cc1ccc(-c2nc3ccc(C)cn3c2CC(=O)c2cc3ccccc3s2)cc1 ? group A

Class for Cc1ccc(-c2nc3ccc(C)cn3c2CC(=O)c2sccc2Cl)cc1 ? group B

Class for CCn1nc(C)c(Br)c1C(=O)Cc1c(-c2ccc(C)cc2)nc2ccc(C)cn12 ? group C

Class for Cc1ccc(-c2nc3ccc(C)cn3c2CC(=O)c2cn(C)cn2)cc1 ? group C

Class for COc1ccsc1C(=O)Cc1c(-c2ccc(C)cc2)nc2ccc(C)cn12 [drawing 131] ? group A

Class for Cc1ccc(-c2nc3ccc(C)cn3c2CC(=O)c2c(C)nn(C)c2C)cc1 ? group C

Class for Cc1ccc(-c2nc3ccc(C)cn3c2CC(=O)c2nn(-c3ccccc3)nc2C)cc1 ? group C

Class for Cc1ccc(-c2nc3ccc(C)cn3c2CC(=O)C2CC2)cc1 ? group B

Class for Cc1ccc(-c2nc3ccc(C)cn3c2CC(=O)C(C)C)cc1 ? group B

Class for Cc1ccc(-c2nc3ccc(C)cn3c2CC(=O)c2cc(C)nn2C)cc1 ? group B

Class for Cc1ccc(-c2nc3ccc(C)cn3c2CC(=O)c2nccn2C)cc1 ? group C

---

molecular target: peripheral benzodiazepine receptors (Rattus norvegicus, UniProt P16257); experiment: biochemical; type: binding; conditions: IC50 (nM) peripheral, Table 1a
Sequence (P16257 whole entry): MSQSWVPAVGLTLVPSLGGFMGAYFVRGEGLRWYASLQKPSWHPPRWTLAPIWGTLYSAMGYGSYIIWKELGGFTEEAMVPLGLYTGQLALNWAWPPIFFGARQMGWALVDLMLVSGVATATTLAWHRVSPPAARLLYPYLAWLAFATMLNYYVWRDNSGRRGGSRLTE
Measurement Name: IC50 (nM)
Field format: number, assumed nM, no unit text.

| Chem Smiles | IC50, nM |
| --- | --- |
| Cc1ccc(-c2nc3ccc(C)cn3c2CC(=O)c2ccc(Cl)cc2)cc1 | 594 |

Report IC50 for Cc1ccc(-c2nc3ccc(C)cn3c2CC(=O)c2ccccc2)cc1 please. 386

---

molecular target: UniProt P16257; assay: biochemical; format: binding; settings: Table 1b; read-out: IC50 (nM) peripheral
Measurement Name: IC50 (nM)
Field format: number, assumed nM, no unit text.

Example results:
| Chem Smiles | IC50 [nM] |
| --- | --- |
| Cc1cc(Cl)cn2c(CC(=O)c3cccs3)c(-c3ccc(Cl)cc3)nc12 | 590 |
| COc1ccc(-c2nc3ccc(C)cn3c2CC(=O)c2cccs2)cc1 | 2400 |
| O=C(Cc1c(-c2ccc(Cl)cc2)nc2ccc(Cl)cn12)c1cccs1 | 290 |
| COc1ccc(-c2nc3ccc(C)cn3c2CC(=O)c2cc(C)nn2C)cc1 | 2300 |
| O=C(Cc1c(-c2ccc(Cl)cc2)nc2ccccn12)c1cccs1 | 2600 |

# context switch: different compound, same IC50
Report IC50 for Cc1cc(Cl)cn2c(CC(=O)c3ccoc3)c(-c3ccc(Cl)cc3)nc12 please. 350

Origin of values: patent US7148353B2
